biological target: Glutathione peroxidase 1 (Homo sapiens); experiment: Primary qHTS Assay for Inhibitors of Recombinant Selenoprotein Glutathione Peroxidase 1 (GPX1) (AID 1845191); details: recombinant GPX1, GR-coupled NADPH fluorescence, 15 min; series mostly up to 48.8 µM; note: nearly all actives have a fitted effect of over 65% in size
Inconclusive results are not listed. Active and inactive are the calls of the source. Calls come from the whole dose curve; as a rule, active = well fitted inhibition curve with a large enough effect; inconclusive = small, poorly fitted or top-dose-only effect; inactive = flat fitted curve, though single readings scatter.
Labels: 1 (active), 0 (inactive)

| Compound | Assigned Label |
| --- | --- |
| C=C(C)C1CC=C(C)CC1 (stereo not drawn) | 0 |
| C[S+](C)CCC(N)C(=O)O (stereo not drawn) | 0 |
| CC[C@H]1OC(=O)[C@H](C)[C@@H](O[C@H]2C[C@@](C)(OC)[C@@H](O)[C@H](C)O2)[C@H](C)[C@@H](O[C@@H]2O[C@H](C)C[C@H](N(C)C)[C@H]2O)[C@](C)(O)C[C@@H](C)CN(C)[C@H](C)[C@@H](O)[C@]1(C)O | 0 |
| NC(N)=NCC1COC2(CCCCC2)O1 (stereo not drawn) | 0 |
| CCCCCCCCCCCCCC(=O)OCC(COP(=O)([O-])OCC[N+](C)(C)C)OC(=O)CCCCCCCCCCCCC (stereo not drawn) | 0 |
| CC(C)(C)NCC(O)c1ccc(O)c(CO)n1 (stereo not drawn) | 0 |
| Cc1cc(-c2ccc(N=Nc3c(S(=O)(=O)O)cc4cc(S(=O)(=O)O)cc(N)c4c3O)c(C)c2)ccc1N=Nc1c(S(=O)(=O)O)cc2cc(S(=O)(=O)O)cc(N)c2c1O | 0 |
| Cc1cc(=O)c(C(=O)N[C@@H](C(=O)N[C@@H]2C(=O)N3C(C(=O)O)=C(CSc4nnnn4C)CS[C@H]23)c2ccc(O)cc2)c[nH]1 | 1 |

Data provenance is PubChem BioAssay (NCATS).
